molecular target: T1, human FolR3 ECD-AcTev-Fcknob-Avi tag + Fc hole, biotinylated monomeric Fc fusion (human, UniProt P0DOX5 223-449 = IgG part); test: SPR ProteOn, Fab analyte;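 further: recombinant antigens immobilized, purified Fab two-fold dilutions injected in parallel channels, 200 s association and 600 s dissociation, buffer-only channel as in-line reference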
T1 construct: also called huFolR3; FolR3-Fc
Observed Property: binding result

Binder: 19H3 Fab (Fab, V domains shown) VH: QVQLVQSGAEVKKPGASVKVSCKASGYTFTSYYMHWVRQAPGQGLEWMGIINPSGGSTSYAQKFQGRVTMTRDTSTSTVYMELSSLRSEDTAVYYCARTGWSRWGYMDYWGQGTLVTVSS VL: QAVVTQEPSLTVSPGGTVTLTCGSSTGAVTTSNYANWVQEKPGQAFRGLIGGTNKRAPGTPARFSGSLLGGKAALTLSGAQPEDEAEYYCALWYSNLWVFGGGTKLTVL
Meas Value: no binding

Binder: 15A1 Fab (Fab, V domains shown) VH: QVQLVQSGAEVKKPGASVKVSCKASGYTFTSYYMHWVRQAPGQGLEWMGIINPSGGSTSYAQKFQGRVTMTRDTSTSTVYMELSSLRSEDTAVYYCARNYYIGVVTFDYWGQGTLVTVSS VL: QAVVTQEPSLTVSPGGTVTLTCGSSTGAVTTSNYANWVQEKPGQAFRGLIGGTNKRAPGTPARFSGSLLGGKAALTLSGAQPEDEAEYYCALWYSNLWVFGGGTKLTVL
Meas Value: no binding

Binder: 21D1 Fab (Fab, V domains shown) VH: QVQLVQSGAEVKKPGASVKVSCKASGYTFTSYYMHWVRQAPGQGLEWMGIINPSGGSTSYAQKFQGRVTMTRDTSTSTVYMELSSLRSEDTAVYYCARNYYVGVSPFDYWGQGTLVTVSS VL: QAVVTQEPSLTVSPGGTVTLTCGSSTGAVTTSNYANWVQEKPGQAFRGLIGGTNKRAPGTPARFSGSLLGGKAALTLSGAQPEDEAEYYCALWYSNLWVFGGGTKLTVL
Meas Value: no binding

Origin of values: patent US20210087291A1
